Here the recorded Activity is given for each entry.
tested on: i-motif DNA; assay: Displacement of thiazole orange from human ILPR i-motif DNA at 100 equiv. at pH 5.5 by fluorescent intercalator displacement assay; format: nucleic-acid assay
Report the value in % with no unit label.

In the examples that follow, each entry is paired with its recorded Activity.
> print(dat)
                              sample.smiles  recorded.metric  observed.value
1  O=C(O)[C@H]1O[C@@H](Oc2cc3oc(-c4ccccc4)cc(=O)c3c(O)c2O)[C@H](O)[C@@H](O)[C@@H]1O         Activity            35.3
2  O=c1c(-c2ccc(O)cc2)coc2cc(O[C@@H]3O[C@H](CO)[C@@H](O)[C@H](O)[C@H]3O)ccc12         Activity            22.6
3  OC[C@H]1O[C@@H](O[C@@H]2[C@@H](CO)O[C@](O)(CO)[C@H]2O)[C@H](O)[C@@H](O)[C@H]1O         Activity            23.1
4  O=c1c(-c2ccc(O)cc2)coc2cc(O[C@@H]3O[C@H](CO)[C@@H](O)[C@H](O)[C@H]3O)cc(O)c12         Activity            23.5
5  COC(=O)C1=CO[C@@H](O[C@@H]2O[C@H](CO)[C@@H](O)[C@H](O)[C@H]2O)[C@@H]2C(CO)=CC[C@H]12         Activity            27.9

For the next question, use this molecule.
Report Activity, nothing else, for this molecule: O=C(O)C1=CO[C@@H](O[C@@H]2O[C@H](CO)[C@@H](O)[C@H](O)[C@H]2O)[C@@H]2C(CO)=CC[C@H]12
25.3

###

system: dsDNA; assay: Displacement of thiazole orange from human 1BNA double stranded DNA at 10 equiv. at pH 7.4 by fluorescent intercalator displacement assay; assay type: nucleic-acid assay
Here the recorded Activity is given for each entry.
Report the value in % with no unit label.

In the examples that follow, each entry is paired with its recorded Activity.
> print(dat)
                              sample.smiles    tgt  recorded.metric  readout.units  observed.value
1  O=C(O)C1=CO[C@@H](O[C@@H]2O[C@H](CO)[C@@H](O)[C@H](O)[C@H]2O)[C@@H]2C(CO)=CC[C@H]12  dsDNA         Activity              %             6.4
2  O=c1c(-c2ccc(O)cc2)coc2cc(O[C@@H]3O[C@H](CO)[C@@H](O)[C@H](O)[C@H]3O)cc(O)c12  dsDNA         Activity              %             6.2
3  O=c1c(-c2ccc(O)cc2)coc2cc(O[C@@H]3O[C@H](CO)[C@@H](O)[C@H](O)[C@H]3O)ccc12  dsDNA         Activity              %               7
4  OC[C@H]1O[C@@H](O[C@@H]2[C@@H](CO)O[C@](O)(CO)[C@H]2O)[C@H](O)[C@@H](O)[C@H]1O  dsDNA         Activity              %             4.3

Report Activity, nothing else, for this molecule: COC(=O)C1=CO[C@@H](O[C@@H]2O[C@H](CO)[C@@H](O)[C@H](O)[C@H]2O)[C@@H]2C(CO)=CC[C@H]12
8.5

Report Activity, nothing else, for this molecule: O=C(O)[C@H]1O[C@@H](Oc2cc3oc(-c4ccccc4)cc(=O)c3c(O)c2O)[C@H](O)[C@@H](O)[C@@H]1O
8.2
